System: HSV-1
Test: HSV-1 challenge of mice vaccinated with B1 peptides: survival (FIG. 7)
Format: in vivo
Details: C57BI6 mice

{"columns": ["Substance", "protection from HSV-1 challenge"],
 "data": [
  ["NGQ EEK AGV VST GLI GGG SSI EFA RL (SEQ ID NO:17) (NGQEEKAGVVSTGLIGGGSSIEFARL) [GB1, conjugated polypeptide of Peptide G, GGG spacer and peptide B1]", "partial protection"],
  ["SSIEFARL (SEQ ID NO:4) [B1, non-conjugated antigenic peptide, amino acid residues 498 to 505 from glycoprotein B of HSV-1, reference compound]", "not protected"],
  ["DLL KNG ERI EKV EGG GSS IEF ARL (SEQ ID NO:16) (DLLKNGERIEKVEGGGSSGSSIEFARL) [JB1, conjugated polypeptide of Peptide J, GGG spacer and peptide B1 of glycoprotein B]", "partial protection"],
  ["LHG PEI LDV PST GGG SSI EFA RL (SEQ ID NO:18) (LHGPEILDVPSTGGGSSIEFARL) [LB1, conjugated polypeptide of Peptide L, GGG spacer and peptide B1]", "not protected"]
]}

* * *

Tested on: HSV-1
Assay: Intraperitoneal challenge of vaccinated mice with an LD50 of HSV-1: symptoms and survival
Type: in vivo
Conditions: Balb/c mice 4 wk old, n=6, vaccinated twice, challenged with an LD50 of HSV-1; FIG. 5
Quantity: survival / death

{"columns": ["Substance", "Quantity", "Endpoint value"],
 "data": [
  ["NGQ EEK AGV VST GLI GGG LYR TFA GNP RA (SEQ ID NO:12) (NGQEEKAGVVSTGLIGGGLYRTFAGNPRA) [GH1, conjugated polypeptide of Peptide G, GGG spacer and peptide H1]", "survival / death", "death"],
  ["LHG PEI LDV PST GGG LYR TFA GNP RA (SEQ ID NO:13) (LHGPEILDVPSTGGGLYRTFAGNPRA) [LH1, conjugated polypeptide of Peptide L, GGG spacer and peptide H1]", "survival / death", "death"],
  ["LYRTFAGNPRA (SEQ ID NO:1) [H1, non-conjugated antigenic peptide, amino acid residues 322 to 332 of the ICP27 protein of HSV-1, reference compound]", "survival / death", "death"]
]}
